molecular target: Candida albicans (Cat. No. 10231, ATCC) whole cells (Candida albicans); assay: luminescent C. albicans ELISA, Fab; assay background 950
Quantity Measured: ELISA (RFU)
// return the numeric value with its unit appended

Solved cases (6 shown):
ID-2-RD6-P1H10 Fab (Fab, V domains shown) VH: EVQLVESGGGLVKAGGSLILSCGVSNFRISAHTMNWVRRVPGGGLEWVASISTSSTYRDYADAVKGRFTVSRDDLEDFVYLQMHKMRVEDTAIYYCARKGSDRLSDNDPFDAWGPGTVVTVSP VL: GVVMTQSPSTLSASVGDTITITCRASQSIETWLAWYQQKPGKAPKLLIYKASTLKTGVPSRFSGSGSGTEFTLTISGLQFDDFATYHCQHYQPFKATFGQGTRVEIKR
5000 RFU
ID-1-RD4-P2G9 Fab (Fab, V domains shown) VH: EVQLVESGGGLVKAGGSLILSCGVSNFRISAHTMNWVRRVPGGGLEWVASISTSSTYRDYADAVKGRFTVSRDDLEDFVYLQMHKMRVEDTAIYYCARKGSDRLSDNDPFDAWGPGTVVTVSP VL: GVVMTQSPSTLSASVGDTITITCRASQSIETWLAWYQQKPGKAPKLLIYKASTLKTGVPSRFSGSGSGTEFTLTISGLQFDDFATYHCQHYQPFDATFGQGTRVEIKR
4000 RFU
1H12 Fab (Fab, V domains shown) VH: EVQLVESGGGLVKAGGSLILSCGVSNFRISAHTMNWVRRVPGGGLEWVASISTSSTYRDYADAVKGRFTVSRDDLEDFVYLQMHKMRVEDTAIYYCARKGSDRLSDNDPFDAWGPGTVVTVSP VL: GVVMTQSPSTLSASVGDTITITCRASQSIETWLAWYQQKPGKAPKLLIYKASTLKTGVPSRFSGSGSGTEFTLTISGLQFDDFATYHCQHYMPYRASFGQGTRVEIKR
1710 RFU
ID-1-RD5-P2H8 Fab (Fab, V domains shown) VH: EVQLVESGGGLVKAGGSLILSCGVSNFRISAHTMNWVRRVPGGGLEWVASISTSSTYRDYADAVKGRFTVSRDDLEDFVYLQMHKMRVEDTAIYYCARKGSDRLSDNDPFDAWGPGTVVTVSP VL: GVVMTQSPSTLSASVGDTITITCRASQSIETWLAWYQQKPGKAPKLLIYKASTLKTGVPSRFSGSGSGTEFTLTISGLQFDDFATYHCQHYREWHATFGQGTRVEIKR
3500 RFU
ID-2-RD6-P1H11 Fab (Fab, V domains shown) VH: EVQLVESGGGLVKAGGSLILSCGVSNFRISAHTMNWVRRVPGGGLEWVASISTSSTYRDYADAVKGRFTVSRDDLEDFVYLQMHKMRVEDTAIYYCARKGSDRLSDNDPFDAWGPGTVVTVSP VL: GVVMTQSPSTLSASVGDTITITCRASQSIETWLAWYQQKPGKAPKLLIYKASTLKTGVPSRFSGSGSGTEFTLTISGLQFDDFATYHCQHYMAYDATFGQGTRVEIKR
13000 RFU
ID-1-RD4-P2C10 Fab (Fab, V domains shown) VH: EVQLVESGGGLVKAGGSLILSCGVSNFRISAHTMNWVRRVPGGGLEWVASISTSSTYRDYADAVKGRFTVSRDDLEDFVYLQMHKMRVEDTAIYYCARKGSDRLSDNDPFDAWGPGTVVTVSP VL: GVVMTQSPSTLSASVGDTITITCRASQSIETWLAWYQQKPGKAPKLLIYKASTLKTGVPSRFSGSGSGTEFTLTISGLQFDDFATYHCQHYKPFMATFGQGTRVEIKR
7900 RFU

Attention now turns to another entry.
Problem: Please give the measured ELISA (RFU) for this binder: ID-3-RD5-P2H7 Fab (Fab, V domains shown) VH: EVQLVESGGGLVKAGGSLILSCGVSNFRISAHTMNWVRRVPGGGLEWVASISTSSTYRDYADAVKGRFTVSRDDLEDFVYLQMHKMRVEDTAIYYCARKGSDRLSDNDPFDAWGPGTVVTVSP VL: GVVMTQSPSTLSASVGDTITITCRASQSIETWLAWYQQKPGKAPKLLIYKASTLKTGVPSRFSGSGSGTEFTLTISGLQFDDFATYHCQHYRAHSGATFGQGTRVEIKR
Solution: 27000 RFU
